Here's what we have: pIC50 numbers for Epidermal growth factor receptor (Homo sapiens, UniProt P00533).
Note on pIC50: it is the negative log10 of concentration, concentration in mol/L.

Illustrative cases are given below, each with its answer.
mol.smiles: CCOC(=O)CCCn1c(=O)oc2cc3ncnc(Nc4ccc(OCc5nccc(OCC(F)(F)F)c5C)cc4)c3cc21
pIC50: 6.11
//
mol.smiles: COCCn1c(=O)oc2cc3ncnc(Nc4ccc(OCc5nccc(OCC(F)(F)F)c5C)cc4)c3cc21
pIC50: 6.47
//
mol.smiles: CCOC(=O)CCCn1c(=O)oc2cc3ncnc(Nc4ccc(OC(C)C)cc4)c3cc21
pIC50: 6.80
//
mol.smiles: CCOC(=O)CCCn1c(=O)oc2cc3ncnc(Nc4cc(C)cc(C)c4)c3cc21
pIC50: 5.82
//
mol.smiles: COCCn1c(=O)oc2cc3ncnc(Nc4ccc(OCc5ccc(Cl)cc5)c(Cl)c4)c3cc21
pIC50: 5.89

Problem: For Epidermal growth factor receptor (Homo sapiens, UniProt P00533), provide pIC50 of C#Cc1cccc(Nc2ncnc3cc4oc(=O)n(CCOC)c4cc23)c1 please.
Solution: 6.72

Problem: For Epidermal growth factor receptor (Homo sapiens, UniProt P00533), provide pIC50 of COCCn1c(=O)oc2cc3ncnc(Nc4ccc(OC)cc4)c3cc21 please.
Solution: 5.29

Problem: For Epidermal growth factor receptor (Homo sapiens, UniProt P00533), provide pIC50 of CCOC(=O)CCCn1c(=O)oc2cc3ncnc(Nc4cccc(O)c4)c3cc21 please.
Solution: 8.06

* * *

System: A498
measurement.notes: Antiproliferative activity against human A498 cells expressing EGFR and Src after 48 hrs by SRB assay
Format: functional, cell-based
experimental.parameters: A498, 48 h
Strictly below 30 µM in IC50: fulfilled. Otherwise: not fulfilled.

Known results for compounds:
mol.smiles: COCCn1c(=O)oc2cc3ncnc(Nc4ccc(F)c(F)c4)c3cc21
class.name: fulfilled

mol.smiles: CCOC(=O)CCCn1c(=O)oc2cc3ncnc(Nc4ccc(F)c(F)c4)c3cc21
class.name: not fulfilled

mol.smiles: CCOC(=O)CCCn1c(=O)oc2cc3ncnc(Nc4ccc5[nH]ncc5c4)c3cc21
class.name: fulfilled

mol.smiles: COCCn1c(=O)oc2cc3ncnc(Nc4ccc(OC)cc4)c3cc21
class.name: not fulfilled

mol.smiles: CCOC(=O)CCCn1c(=O)oc2cc3ncnc(Nc4cccc(O)c4)c3cc21
class.name: fulfilled

mol.smiles: CCOC(=O)CCCn1c(=O)oc2cc3ncnc(Nc4ccc(OC(C)C)cc4)c3cc21
class.name: not fulfilled

mol.smiles: CCOC(=O)CCCn1c(=O)oc2cc3ncnc(Nc4ccc(O)cc4)c3cc21
class.name: fulfilled

mol.smiles: CCOC(=O)c1ccc(O)c(Nc2ncnc3cc4oc(=O)n(CCOC)c4cc23)c1
class.name: fulfilled

Problem: # check: IC50 < 30 µM for CCOC(=O)CCCn1c(=O)oc2cc3ncnc(Nc4ccc(S(N)(=O)=O)cc4)c3cc21
Solution: fulfilled

Problem: # check: IC50 < 30 µM for CCOC(=O)CCCn1c(=O)oc2cc3ncnc(Nc4ccc(C(=O)OCc5ccc(Cl)cc5)cc4)c3cc21
Solution: fulfilled

Problem: # check: IC50 < 30 µM for CCOC(=O)CCCn1c(=O)oc2cc3ncnc(Nc4cc(C(=O)OCC)ccc4O)c3cc21
Solution: not fulfilled

Problem: # check: IC50 < 30 µM for COCCn1c(=O)oc2cc3ncnc(Nc4ccc(OCc5ccc(Cl)cc5)c(Cl)c4)c3cc21
Solution: fulfilled

Problem: # check: IC50 < 30 µM for CCOC(=O)CCCn1c(=O)oc2cc3ncnc(Nc4ccc(OCc5ccccn5)cc4)c3cc21
Solution: not fulfilled
